These entries and their values trace back to ChEMBL document CHEMBL1201862.

Tested on: HCT-116
Test: NCI tumour cell line growth inhibition, 48 h
Calls of active or inactive are those of the source. Cut-off read from the data, not from the text of the source: active = GI50 up to about 1.1 µM and inactive = higher.
# reported GI50; entries follow

See these solved cases before continuing.
CCC1(N=[N+]=[N-])C(=O)c2ccccc2N(C)C1=O (stereo unspecified): > 100 µM (inactive)
C#CCSc1nc(-c2ccco2)n[nH]1: > 100 µM (inactive)
O=C1C=C(Br)c2c(Br)sc(Br)c21: 6.05 µM (inactive)

Q. State its GI50: `CC(C)/C(Cl)=N\OC(=O)Nc1ccc(F)cc1F`
A. 3.78 µM (inactive)

Q. State its GI50: CC(O[Si](c1ccccc1)(c1ccccc1)C(C)(C)C)[C@H](NC(=O)OC(C)(C)C)C(=O)O[Si](c1ccccc1)(c1ccccc1)C(C)(C)C (stereo partly specified)
A. 11.2 µM (inactive)

Q. State its GI50: O=C1OCC(C(=O)c2cccc(O)c2)C1=O (stereo unspecified)
A. > 100 µM (inactive)
